- PROTOCOL: Biodistribution in AR4-2J tumor-bearing mice
- Assay type: in vivo
- CONDITIONS: female, mouse, stomach, iv, 10 pmol, total radioactivity; AR4-2J tumor SCID mice, 4 h pi; mean ± SD; read-out: Stomach uptake
READOUT_TYPE: tissue uptake at 4 h (%ID/g)
The reply should be a number in %ID/g, with the unit left off.

Noted for C[C@H](NC(=O)CN1CCN(CC(=O)O)CCN(CC(=O)O)CCN(CC(=O)O)CC1)C(=O)NCC(=O)N[C@H]1CSSC[C@@H](C(=O)O)NC(=O)[C@H](CO)NC(=O)[C@H]([C@@H](C)O)NC(=O)[C@H](Cc2ccccc2)NC(=O)[C@H]([C@@H](C)O)NC(=O)[C@H](CCCCN)NC(=O)[C@@H](Cc2c[nH]c3ccccc23)NC(=O)[C@H](Cc2ccccc2)NC(=O)[C@H](Cc2ccccc2)NC(=O)[C@H](CC(N)=O)NC(=O)[C@H](CCCCN)NC1=O [[^111In]AT2S, metal not drawn] : its tissue uptake at 4 h reads 1.81
